measurement.name: IC50

Q: Give Hematopoietic prostaglandin D synthase (Homo sapiens, UniProt O60760) IC50 for `Cn1ccnc1C(=O)N1CCN(C(=O)NC2CCN(c3ccc(C(=O)NCCN4CCOCC4)cc3)CC2)CC1`
Result: > 1000 nM

Q: Give Hematopoietic prostaglandin D synthase (Homo sapiens, UniProt O60760) IC50 for `Cc1cc2nc(NC(=O)N3CCN(C(=O)c4cccc(F)c4)CC3)sc2cc1C`
Result: 222 nM

Q: Give Hematopoietic prostaglandin D synthase (Homo sapiens, UniProt O60760) IC50 for `O=C(Nc1nc2ccc(Br)cc2s1)N1CCN(C(=O)c2cccc(F)c2)CC1`
Result: 106 nM

Q: Give Hematopoietic prostaglandin D synthase (Homo sapiens, UniProt O60760) IC50 for `Cn1ccc(C(=O)N2CCN(C(=O)NC3CCN(c4ccc(C(=O)NCCN5CCOCC5)cc4)CC3)CC2)c1`
Result: > 1000 nM

Q: Give Hematopoietic prostaglandin D synthase (Homo sapiens, UniProt O60760) IC50 for `Cc1ccc2nc(NC(=O)N3CCN(C(=O)c4cccc(F)c4)CC3)sc2c1`
Result: 260 nM

Q: Give Hematopoietic prostaglandin D synthase (Homo sapiens, UniProt O60760) IC50 for `O=C(NCCN1CCOCC1)c1ccc(N2CCC(NC(=O)N3CCN(C(=O)c4ccsc4)CC3)CC2)cc1`
Result: 327 nM

Q: Give Hematopoietic prostaglandin D synthase (Homo sapiens, UniProt O60760) IC50 for `O=C(NCCN1CCOCC1)c1ccc(N2CCC(NC(=O)N3CCN(C(=O)c4ccco4)CC3)CC2)cc1`
Result: 445 nM

Q: Give Hematopoietic prostaglandin D synthase (Homo sapiens, UniProt O60760) IC50 for `O=C(Nc1nc2ccc(Cl)cc2s1)N1CCN(C(=O)c2cccc(F)c2)CC1`
Result: 204 nM

Q: Give Hematopoietic prostaglandin D synthase (Homo sapiens, UniProt O60760) IC50 for `O=C(NCCN1CCOCC1)c1ccc(N2CCC(NC(=O)N3CCN(C(=O)C4CCCC4)CC3)CC2)cc1`
Result: > 1000 nM

Q: Give Hematopoietic prostaglandin D synthase (Homo sapiens, UniProt O60760) IC50 for `COc1ccc2nc(NC(=O)N3CCN(C(=O)c4cccc(F)c4)CC3)sc2c1`
Result: 318 nM

Q: Give Hematopoietic prostaglandin D synthase (Homo sapiens, UniProt O60760) IC50 for `O=C(NCCN1CCOCC1)c1ccc(N2CCC(NC(=O)N3CCN(C(=O)c4ccc[nH]4)CC3)CC2)cc1`
Result: 334 nM
